Taken from patent US20130216547A1.

Target: T1, mouse big-ET-1 (mouse)
T1 construct: also called mBig-ET-1
T1 peptide: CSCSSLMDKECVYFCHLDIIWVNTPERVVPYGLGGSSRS
Test: SPR (Biacore T200), 37 C, mAb capture, peptide analyte
MEASURED PROPERTY: kon (M⁻¹ s⁻¹)

- H4H6345P (antibody, V domains shown, Human IgG4 Fc (prefix H4H)) VH: EVQLVESGGGLVQPGGSLRLSCAASGFIFSSYAMTWVRQAPGKGLEWVSAISGSGVSTYYADSVKGRFTISRDNSKNTLYLQMNSLRIEDTAVYYCGKARTGTHAFDIWGQGTMVTVSS VL: DIQMTQSPSTLSASVGDRVTITCRASQSISRWLAWYQQKPGKAPKLLIYKASSLETGVPSRFSGSGSGTEFTLTISSLQPDDFGTYYCQQYNSYSSFGPGTKVDIK: 1.5e+06
- H4H6323P (antibody, V domains shown, Human IgG4 Fc (prefix H4H)) VH: QITLKESGPPLVKPTQTLTLTCTFSGFSLNTNGMGVGWIRQPPGKALEWLTLIYWNDDKRYSPSLKTRLTITKDTSKNQVVLTMTNMDPVDTATYYCARFGSGTYWGQGTLVTVSS VL: DIVMTQSPLSLPVTPGEPASISCRSSQSLLHSYGYNFLDWFLQKPGQSPQLLIYLGSHRASGVPDRFSGSGSGTDFTLKISRVEAEDVGVYYCMQALQTPLTFGGGTKVEIK: 580000
- H4H6330P (antibody, V domains shown, Human IgG4 Fc (prefix H4H)) VH: EVQLVESGGGLVQPGGSLRLSCAASGFTFSNYAMSWVRQAPGKGLEWVSAVSGSGVGTYYADSVKGRFTISRDNSKNTLYLQMKSLSAEDTALYYCTKTLGGTHAFDIWGQGTMVTVSS VL: DIQMTQSPSTLSASVGDRVTITCRASQSISRWLAWYQQKPGKAPKLLIYKASSLESGVPSRFSGSGSGTEFTVTINSLQPDDFATYYCQQYNSYSSFGQGTKLEIK: 1.5e+06
